Kindly supply the reported Stability of Cannabinoids in AB Red values for the records listed here.
Assay: Stability of cannabinoid and Vitamin E components of Beverage 2 (AB Red) stored at 8° C. and 21-25° C., LCMSMS over 570 days
Conditions: 21-25° C., 60 days
Answers without a unit are incomplete; give the number and then its unit.

input: Give its Stability of Cannabinoids in AB Red value. Item: CCCCCc1cc(O)c2c(c1)OC(C)(CCC=C(C)C)C=C2 (stereo not drawn) [CBC, cannabichromene]
output: 0.29 µg/mL

input: Give its Stability of Cannabinoids in AB Red value. Item: CCCCCc1cc(O)c2c(c1)OC(C)(C)[C@@H]1CCC(C)=C[C@@H]21 [D9 THC, delta-9-tetrahydrocannabinol, reference compound]
output: 12.2 µg/mL

input: Give its Stability of Cannabinoids in AB Red value. Item: CCCCCc1cc(O)c2c(c1)OC(C)(C)c1ccc(C)cc1-2 [CBN, cannabinol]
output: 2.78 µg/mL

input: Give its Stability of Cannabinoids in AB Red value. Item: CCCCCc1cc(O)c(C/C=C(\C)CCC=C(C)C)c(O)c1 [CBG, cannabigerol]
output: 4.61 µg/mL

input: Give its Stability of Cannabinoids in AB Red value. Item: CCCCCc1cc2c(c(O)c1C(=O)O)[C@@H]1C=C(C)CC[C@H]1C(C)(C)O2 [D9 THCA, delta-9-tetrahydrocannabinolic acid]
output: 1.28 µg/mL

input: Give its Stability of Cannabinoids in AB Red value. Item: C=C(C)[C@@H]1CCC(C)=C[C@H]1c1c(O)cc(CCC)cc1O [CBDV, cannabidivarin]
output: 0.20 µg/mL

input: Give its Stability of Cannabinoids in AB Red value. Item: CCCc1cc(O)c2c(c1)OC(C)(C)[C@@H]1CCC(C)=C[C@@H]21 [THCV, delta-9-tetrahydrocannabivarin]
output: 3.18 µg/mL

input: Give its Stability of Cannabinoids in AB Red value. Item: C=C(C)[C@@H]1CCC(C)=C[C@H]1c1c(O)cc(CCCCC)c(C(=O)O)c1O [CBDA, cannabidiolic acid]
output: 1.59 µg/mL

input: Give its Stability of Cannabinoids in AB Red value. Item: CCCCCc1cc(O)c2c(c1)OC1(C)CCC3C1C2C3(C)C (stereo not drawn) [CBL, cannabicyclol]
output: 0.50 µg/mL

###

Assay: Stability of cannabinoid and Vitamin E components of Beverage 2 (AB Red) stored at 8° C. and 21-25° C., LCMSMS over 570 days
Conditions: 21-25° C., 540 days
READOUT: Stability of Cannabinoids in AB Red (µg/mL)
Numbers only here, please. The scale is µg/mL.

input: Give its Stability of Cannabinoids in AB Red value. Item: CCCCCc1cc(O)c2c(c1)OC(C)(C)[C@@H]1CCC(C)=C[C@@H]21 [D9 THC, delta-9-tetrahydrocannabinol, reference compound]
output: 12.2

input: Give its Stability of Cannabinoids in AB Red value. Item: CCCCCc1cc2c(c(O)c1C(=O)O)[C@@H]1C=C(C)CC[C@H]1C(C)(C)O2 [D9 THCA, delta-9-tetrahydrocannabinolic acid]
output: 1.29

input: Give its Stability of Cannabinoids in AB Red value. Item: "C=C(C)[C@@H]1CCC(C)=C[C@H]1c1c(O)cc(CCC)cc1O"
output: 0.19

input: Give its Stability of Cannabinoids in AB Red value. Item: CCCCCc1cc(O)c2c(c1)OC1(C)CCC3C1C2C3(C)C (stereo not drawn)
output: 0.47

input: Give its Stability of Cannabinoids in AB Red value. Item: "C=C(C)[C@@H]1CCC(C)=C[C@H]1c1c(O)cc(CCCCC)c(C(=O)O)c1O"
output: 1.57

input: Give its Stability of Cannabinoids in AB Red value. Item: CCCc1cc(O)c2c(c1)OC(C)(C)[C@@H]1CCC(C)=C[C@@H]21 [THCV, delta-9-tetrahydrocannabivarin]
output: 2.95

input: Give its Stability of Cannabinoids in AB Red value. Item: "CCCCCc1cc(O)c2c(c1)OC(C)(C)c1ccc(C)cc1-2"
output: 2.65

input: Give its Stability of Cannabinoids in AB Red value. Item: "CCCCCc1cc(O)c(C/C=C(\C)CCC=C(C)C)c(O)c1"
output: 4.49

input: Give its Stability of Cannabinoids in AB Red value. Item: CCCCCc1cc(O)c2c(c1)OC(C)(CCC=C(C)C)C=C2 (stereo not drawn)
output: 0.28
